testSummary: qHTS of pediatric cancer cell lines to identify multiple opportunities for drug repurposing: Primary screen for DAOY cells (AID 1347090); note: nearly all actives have a fitted effect of over 55% in size
details: DAOY medulloblastoma viability, CellTiter-Glo luminescence, 48 h; series mostly up to 46 µM
Inconclusive results are not listed. Calls of active or inactive are those of the source. Calls come from the whole dose curve; as a rule, active = well fitted cell-killing curve with a large enough effect; inconclusive = small, poorly fitted or top-dose-only effect; inactive = flat fitted curve, though single readings scatter.
Outcome codes: active, inactive

INSERT INTO results (compound, cat) VALUES
  ('COC(=O)[C@]12CCC(C)(C)C[C@@H]1[C@@H]1C(=O)C=C3[C@@]4(C)C=C(C#N)C(=O)C(C)(C)[C@@H]4CC[C@@]3(C)[C@]1(C)CC2', 'active'),
  ('COc1cc(=C2C=c3ccccc3=N2)[nH]c1=Cc1[nH]c(C)cc1C', 'active'),
  ('CC(O)C1C(=O)N2C(C(=O)O)=C(SC3CNC(C(=O)N(C)C)C3)C(C)C12 (centres undefined)', 'inactive'),
  ('O=C(O)Cn1nnc(-c2cc(N3CCC(Oc4cc(F)ccc4Br)CC3)no2)n1', 'inactive'),
  ('CC(C)[C@H](C(=O)Nc1ccc(C(=O)NO)cc1)c1ccccc1', 'active'),
  ('CNC(=O)CN1CCC(Oc2cc3c(Nc4cccc(Cl)c4F)ncnc3cc2OC)CC1', 'active'),
  ('COc1cc(OC2CCN(C)CC2)ccc1Nc1ncc2c(n1)n(C1CCCC1)c(=O)n2C', 'active'),
  ('Cc1ccc2nc(NC(=O)CSc3nc4c(c(=O)n3-c3ccccc3)SCC4)sc2c1', 'active'),
  ('CC(C)(C)OC(=O)Nc1ccc(-c2cc(C(=O)NCCCCCCC(=O)NO)no2)cc1', 'active');

----------
measuredOn: Cytochrome P450 2C9 (Homo sapiens) (UniProt P11712)
Sequence (P11712 whole entry, looked up): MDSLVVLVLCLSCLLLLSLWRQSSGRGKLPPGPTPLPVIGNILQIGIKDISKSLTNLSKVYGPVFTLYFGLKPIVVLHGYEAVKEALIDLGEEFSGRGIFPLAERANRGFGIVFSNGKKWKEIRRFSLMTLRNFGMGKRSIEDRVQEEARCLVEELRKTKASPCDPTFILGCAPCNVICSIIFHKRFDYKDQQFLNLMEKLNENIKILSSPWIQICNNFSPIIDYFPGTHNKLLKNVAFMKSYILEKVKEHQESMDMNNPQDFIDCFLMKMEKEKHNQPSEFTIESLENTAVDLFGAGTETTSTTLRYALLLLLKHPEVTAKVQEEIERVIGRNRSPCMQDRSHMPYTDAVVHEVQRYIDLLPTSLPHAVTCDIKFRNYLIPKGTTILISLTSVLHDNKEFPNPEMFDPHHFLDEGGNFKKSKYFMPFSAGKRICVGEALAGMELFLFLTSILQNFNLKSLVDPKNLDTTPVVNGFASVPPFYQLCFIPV
testSummary: Cytochrome P450 family 2 subfamily C member 9 (CYP2C9) small molecule antagonists: luciferase biochemical (cell-free) qHTS assay (AID 1645842); note: potency is the fitted concentration of half-maximal effect; nearly all actives have a fitted effect of over 55% in size
details: P450-Glo CYP2C9 enzyme assay, luciferin luminescence; series mostly up to 57.4 µM
Results filed as inconclusive are left out. Activity calls are given as the source filed them. Calls come from the whole dose curve; as a rule, active = well fitted inhibition curve with a large enough effect in the repeat runs; inconclusive = weak or mixed curves; inactive = no such curve, though single readings can be large or run the other way.
quantityName: Potency

INSERT INTO results (compound, measuredon, datavalue) VALUES
  ('C=CC(=O)Nc1cccc(Oc2nc(Nc3ccc(N4CCN(C)CC4)cc3)ncc2Cl)c1', 'Cytochrome P450 2C9 (Homo sapiens) (UniProt P11712)', '2.39 µM (active)'),
  ('C[C@@H](Oc1cc(-c2cnn(C3CCNCC3)c2)cnc1N)c1c(Cl)ccc(F)c1Cl', 'Cytochrome P450 2C9 (Homo sapiens) (UniProt P11712)', '1.69 µM (active)'),
  ('Nc1nccc(Oc2ccc(NC(=O)c3c[nH]cc(-c4ccc(F)cc4)c3=O)cc2F)c1Cl', 'Cytochrome P450 2C9 (Homo sapiens) (UniProt P11712)', '8.49 µM (active)'),
  ('Cc1cnc(-c2cnc(NCCNc3ccc(C#N)cn3)nc2-c2ccc(Cl)cc2Cl)[nH]1', 'Cytochrome P450 2C9 (Homo sapiens) (UniProt P11712)', '1.51 µM (active)'),
  ('CC(C)(C)c1cnc(CSc2cnc(NC(=O)C3CCNCC3)s2)o1', 'Cytochrome P450 2C9 (Homo sapiens) (UniProt P11712)', '17.8 µM (active)'),
  ('CNC(=O)c1ccccc1Nc1nc(Nc2ccc(N3CCOCC3)cc2OC)ncc1Cl', 'Cytochrome P450 2C9 (Homo sapiens) (UniProt P11712)', '0.301 µM (active)'),
  ('CC1(C)CC(=O)c2c(C(F)(F)F)nn(-c3ccc(C(N)=O)c(NC4CCC(OC(=O)CN)CC4)c3)c2C1 (centres undefined)', 'Cytochrome P450 2C9 (Homo sapiens) (UniProt P11712)', '2.68 µM (active)'),
  ('CNc1nccc(-c2cccnc2Oc2cc(C(=O)Nc3cccc(C(F)(F)F)c3)ccc2C)n1', 'Cytochrome P450 2C9 (Homo sapiens) (UniProt P11712)', '3.01 µM (active)'),
  ('Cc1ccc(C(=O)Nc2cccc(C(F)(F)F)c2)cc1-c1ccc2nc(NCCN3CCOCC3)ncc2c1', 'Cytochrome P450 2C9 (Homo sapiens) (UniProt P11712)', '1.69 µM (active)');
